Cited source: patent US20140018416A1

- Experiment Notes: Retention of vinaxanthone in corneal tissues after eye drops administration
- Type: in vivo
- Study Conditions: male, Kbs: JW, cornea, topical, 5 mg/mL (50 μL eye drop); rabbit, 50 μL eye drops of 5.0 mg/mL PBS solution, 6 hours after administration; read-out: Concentration of vinaxanthone retained in the cornea
Value Kind: concentration at 6 h

Data request, read-out concentration at 6 h, for CC(=O)c1cc2c(=O)c3c(C(=O)O)c(O)c(O)cc3oc2c(C(C)=O)c1-c1coc2cc(O)c(O)c(C(=O)O)c2c1=O [SPF-3059-5, vinaxanthone]
> 75 ng/mL
